Reported values of Scaling for individual entries
Tested on: white male New Zealand rabbits
Conditions: rabbit, in vivo
Keep the answer to the number alone.

Sample answers from the record:
Incoming: Fill in: Scaling of CCc1cc2c(cc1/C(C)=C/c1ccc(C(=O)O)cc1)C(C)(C)CCC2(C)C is ___
Outgoing: 1.7

Incoming: Fill in: Scaling of C/C(=C\c1ccc(C(=O)O)cc1)c1cc2c(cc1C)C(C)(C)CCC2(C)C is ___
Outgoing: 2.7

Incoming: Fill in: Scaling of C/C(=C\c1ccc(C(=O)O)cc1)c1cc2c(cc1CC(C)C)C(C)(C)CCC2(C)C is ___
Outgoing: 1.0

Incoming: Fill in: Scaling of C/C(=C\c1ccc(C(=O)O)cc1)c1cc2c(cc1C(C)C)C(C)(C)CCC2(C)C is ___
Outgoing: 3.0

In the following, a different compound is considered.
Incoming: Fill in: Scaling of CC1=C(/C=C/C(C)=C/C=C/C(C)=C/C(=O)O)C(C)(C)CCC1 [Vitamin A acid, reference compound] is ___
Outgoing: 3.0
